Entry source: BindingDB's records for doi:10.1016/j.bmcl.2009.05.073

# Target Or Test System: Heat shock factor protein 1 (Homo sapiens, UniProt Q00613)
# Sequence (Q00613 whole entry): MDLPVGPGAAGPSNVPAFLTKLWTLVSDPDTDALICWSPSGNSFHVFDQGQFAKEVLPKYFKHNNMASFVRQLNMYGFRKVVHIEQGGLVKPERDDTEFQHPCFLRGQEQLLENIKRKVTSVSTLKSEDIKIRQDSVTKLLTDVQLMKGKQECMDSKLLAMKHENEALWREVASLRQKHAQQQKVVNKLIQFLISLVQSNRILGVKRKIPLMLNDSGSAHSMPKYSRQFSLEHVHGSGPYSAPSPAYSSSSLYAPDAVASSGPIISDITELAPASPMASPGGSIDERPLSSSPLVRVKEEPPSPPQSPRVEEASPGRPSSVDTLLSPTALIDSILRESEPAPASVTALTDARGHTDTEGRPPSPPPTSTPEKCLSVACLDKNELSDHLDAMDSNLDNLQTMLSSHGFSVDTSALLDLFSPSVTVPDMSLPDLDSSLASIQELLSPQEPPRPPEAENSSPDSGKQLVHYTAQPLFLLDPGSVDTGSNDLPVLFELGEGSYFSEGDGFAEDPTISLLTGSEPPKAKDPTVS
# Assay Method Text: Amplification of HSF1 transcriptional activity in human heat shock-induced HeLa cells assessed as granule formation treated 1 hr before heat shock challenge measured after 2 hrs without recovery time by immunocytochemical staining
Parameter Measured: pEC50
By convention, pEC50 is the negative base-10 log of a molar concentration.

For the compound `C=c1c(O)c(O)cc2c1=CC=C1[C@@]2(C)CC[C@@]2(C)[C@@H]3C[C@](C)(C(=O)O)CC[C@]3(C)CC[C@]12C` , give its reported pEC50.
5.96

###

# Assay Method Text: Amplification of HSF1 transcriptional activity in human heat shock-induced HeLa cells assessed as granule formation treated 1 hr before heat shock challenge measured after 2 hrs without recovery time by immunocytochemical staining
Parameter Measured: EC50 (µM)
Express the result in µM but write the number alone.

Look up and report measured EC50 for this entry: `CCn1nc(-c2ccc(C)s2)nc2c(=O)n(C)c(=O)nc1-2`
17.3

// fetch EC50 given entry `CCCCn1nc(-c2ccc(C)s2)nc2c(=O)n(C)c(=O)nc1-2`
16.8

State its EC50: `CCCCn1nc(-c2ccccc2)nc2c(=O)n(C)c(=O)nc1-2`
14.8

Please list EC50 recorded for the compound `CCCCn1nc(-c2ccc(C)s2)[n+]([O-])c2c(=O)n(C)c(=O)nc1-2`
8.6

Tell me measured EC50 for `CCn1nc(-c2ccc(C)s2)[n+]([O-])c2c(=O)n(C)c(=O)nc1-2` please.
11.6

Provide measured EC50 value, entry: `CCn1nc(-c2ncc[nH]2)nc2c(=O)n(C)c(=O)nc1-2`
39.8

Identify measured EC50 associated with `CCCCn1nc(-c2ccc3ccccc3n2)nc2c(=O)n(C)c(=O)nc1-2`
2.5

Answer with the recorded EC50 of `Cn1c(=O)nc2n(Cc3ccc(F)cc3)nc(-c3nc4ccccc4s3)nc-2c1=O` only.
14

Provide only the value of recorded EC50 for `CCCCn1nc(-c2ccc(C)o2)[n+]([O-])c2c(=O)n(C)c(=O)nc1-2`
10

Please give the documented EC50 of `CCCCn1nc(-c2ccc(C)o2)nc2c(=O)n(C)c(=O)nc1-2`
9.9

Determine its reported EC50: `CCn1nc(-c2ccc[nH]2)[n+]([O-])c2c(=O)n(C)c(=O)nc1-2`
24.7

Indicate its recorded EC50; the compound in question is `CC(C)Cn1nc(-c2nc3ccccc3s2)nc2c(=O)n(C)c(=O)nc1-2`
1.3

// fetch EC50 given entry `Cn1c(=O)nc2n(Cc3ccccc3)nc(-c3nc4ccccc4s3)nc-2c1=O`
4.1

Read the entry `CC(C)CCn1nc(-c2nc3ccccc3s2)nc2c(=O)n(C)c(=O)nc1-2` and write its reported EC50.
2.5

Tell me EC50 reported for `CCn1nc(-c2ccc(C)o2)[n+]([O-])c2c(=O)n(C)c(=O)nc1-2`
20.6

Answer with the recorded EC50 of `CCn1nc(-c2ccc(C)o2)nc2c(=O)n(C)c(=O)nc1-2` only.
46.3

Identify the reported EC50 for the following entry. `CCCCn1nc(-c2nc3ccccc3[nH]2)nc2c(=O)n(C)c(=O)nc1-2`
40.8

For `CCCCn1nc(-c2nccs2)nc2c(=O)n(C)c(=O)nc1-2` , write its EC50.
2.1

Provide EC50 value for the following compound: `CCn1nc(-c2cccs2)nc2c(=O)n(C)c(=O)nc1-2`
5.1

Return the recorded EC50 value; entry: `CCn1nc(-c2ccc[nH]2)nc2c(=O)n(C)c(=O)nc1-2`
35

Entry `CCCCn1nc(-c2ncc[nH]2)nc2c(=O)n(C)c(=O)nc1-2` needs its EC50 filled in; supply it.
7.7

Consider the compound `CCn1nc(-c2ccco2)nc2c(=O)n(C)c(=O)nc1-2` and give its recorded EC50.
10.1
